Ref: the supplement of paper PMC3545927

- target: furin, P09958;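 further: purified furin at 1:10 enzyme:substrate in 50 mM HEPES pH 7.5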
- Sequence (P09958 whole entry): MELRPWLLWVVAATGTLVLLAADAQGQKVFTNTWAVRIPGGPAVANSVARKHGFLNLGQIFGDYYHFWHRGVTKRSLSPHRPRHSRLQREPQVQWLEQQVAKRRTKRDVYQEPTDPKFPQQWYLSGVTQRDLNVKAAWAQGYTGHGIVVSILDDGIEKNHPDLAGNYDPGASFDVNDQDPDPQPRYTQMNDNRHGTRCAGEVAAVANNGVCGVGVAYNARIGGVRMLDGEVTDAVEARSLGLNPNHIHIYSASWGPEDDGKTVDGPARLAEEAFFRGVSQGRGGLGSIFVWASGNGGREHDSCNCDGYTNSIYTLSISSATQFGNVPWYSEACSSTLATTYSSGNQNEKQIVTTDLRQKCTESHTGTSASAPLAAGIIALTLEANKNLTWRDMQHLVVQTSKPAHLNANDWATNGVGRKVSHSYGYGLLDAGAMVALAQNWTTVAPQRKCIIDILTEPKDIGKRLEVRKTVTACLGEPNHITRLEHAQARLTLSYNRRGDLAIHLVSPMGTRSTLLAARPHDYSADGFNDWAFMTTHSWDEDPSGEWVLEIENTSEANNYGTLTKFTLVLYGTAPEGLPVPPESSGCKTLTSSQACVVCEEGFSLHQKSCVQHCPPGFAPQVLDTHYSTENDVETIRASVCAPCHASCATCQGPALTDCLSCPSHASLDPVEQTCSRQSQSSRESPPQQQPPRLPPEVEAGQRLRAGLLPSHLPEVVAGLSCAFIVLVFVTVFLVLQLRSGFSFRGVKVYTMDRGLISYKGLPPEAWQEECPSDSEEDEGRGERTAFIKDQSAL
- method description: furin cleavage Z-score vs untreated control; higher = more cleavage, active = 3.5 or more, inactive = 1 or less, 8 variable residues between constant flanks
- conditions used: 15 min
The list shows a part of the results. The hit rate among all sequences tested is not known here.
Outcomes: yes (active), no (inactive)

1. CALAVAVEPVAGNASASA [HC644]; no
2. CALMRRRRRKAGNASASA [FS-1599]; yes
3. CAGNLPGCSFAGNASASA [HC244]; no
4. CAMTPCSGSWAGNASASA [HC1826]; no
5. CALPQRAYALAGNASASA [HC562]; no
6. CAEVICHRPSAGNASASA [HC2344]; no
7. CASTPCSTHLAGNASASA [HC2538]; no
